target: D(2) dopamine receptor (Homo sapiens, UniProt P14416); test: In vitro binding affinity is the ability to displace [3H]N-0437 from human Dopamine receptor D2 expressed in CHO-K1 cells; format: cell-based
Sequence (P14416 whole entry): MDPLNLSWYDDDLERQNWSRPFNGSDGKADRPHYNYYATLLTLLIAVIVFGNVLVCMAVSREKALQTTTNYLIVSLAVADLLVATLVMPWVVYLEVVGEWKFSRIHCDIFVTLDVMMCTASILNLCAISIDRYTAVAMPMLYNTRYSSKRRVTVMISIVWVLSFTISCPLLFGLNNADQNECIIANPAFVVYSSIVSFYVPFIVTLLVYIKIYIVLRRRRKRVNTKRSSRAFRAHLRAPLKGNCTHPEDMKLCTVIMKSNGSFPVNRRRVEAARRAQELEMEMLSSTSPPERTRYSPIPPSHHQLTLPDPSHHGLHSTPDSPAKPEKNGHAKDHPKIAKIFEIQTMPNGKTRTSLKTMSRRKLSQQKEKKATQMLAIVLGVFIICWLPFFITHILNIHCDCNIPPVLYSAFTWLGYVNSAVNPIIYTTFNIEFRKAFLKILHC
reported endpoint: Ki
Please answer using the number first and the unit second.

Past entries and their recorded results:
- molecule: "CCCN(CCC)C1CCc2n[nH]cc2C1 (stereo unspecified)"
  test system: "D(2) dopamine receptor (Homo sapiens, UniProt P14416)"
  reported endpoint: "Ki"
  recorded measurement: "0.523 µM"
- molecule: "CCCN(CCC)C1CCc2nc(OC)ccc2C1 (stereo unspecified)"
  test system: "D(2) dopamine receptor (Homo sapiens, UniProt P14416)"
  reported endpoint: "Ki"
  recorded measurement: "1.2 µM"

Here is the next item to consider.
Task: Dear colleague, I am looking for the recorded Ki of the following molecule: CCCN(CCC)C1CCc2nc(N)ccc2C1 (stereo unspecified)
Output: 0.005 µM
